system: HCT-15; test: Antiproliferative activity against human HCT15 cells after 72 hrs by SRB assay; format: functional, cell-based; details: hct-15
Recorded Metric: IC50 (µM)

P: COc1cc2c(c(OC)c1OC)-c1c(cc3c(c1OC)OCO3)C[C@H](C)[C@H](C)C2 (stereo in doubt; form 1) [WUWEIZISU B]
Q: COc1cc2c(c(OC)c1OC)-c1c(cc3c(c1OC)OCO3)C[C@H](C)[C@H](C)C2 (stereo in doubt; form 2) [WUWEIZISU B]
Q) Could you tell me which of these two has the smaller IC50 figure? First: P Second: Q Which one? Tell me its label.
A) P
(P: 14.1 µM, Q: 88.1 µM)
